- System: HCT-8 host cells (Hs18S)
- experimental_conditions: primary screening at 10 uM, treated vs control
Where a name gives a salt, the structure may show the parent alone.
# cutoff -0.06 applies to Hs18S ΔCT; >= gives Criterion met, < gives Criterion not met

{"columns": ["compound", "classification"],
 "data": [
  ["C=CCSC[C@H](N)C(=O)O", "Criterion not met"],
  ["CC1(C)C(=O)C=C[C@]2(C)[C@H]3CC[C@@]4(C)[C@H](c5ccoc5)OC(=O)[C@H]5O[C@]54[C@]3(C)C(=O)C[C@@H]12", "Criterion met"],
  ["CC(=O)O[C@H]1C[C@@H](OC(C)=O)C(C)(C)C2CC(=O)[C@]3(C)C(CC[C@@]4(C)[C@H](c5ccoc5)OC(=O)[C@H]5O[C@]543)[C@]21C (stereo partly shown)", "Criterion met"],
  ["COc1cc([C@@H]2c3cc4c(cc3[C@H](O)[C@H]3COC(=O)[C@@H]23)OCO4)cc(OC)c1OC", "Criterion met"],
  ["O=C(O[C@@H]1Cc2c(O)cc(O)cc2O[C@@H]1c1cc(O)c(O)c(O)c1)c1cc(O)c(O)c(O)c1 [EPIGALLOCATECHIN-3-MONOGALLATE]", "Criterion not met"],
  ["N=C(N)NCCCCN [AGMATINE SULFATE]", "Criterion met"],
  ["O=C(O)c1cc(O)c2c(c1)[C@H]([C@H]1c3cc(C(=O)O)cc(O)c3C(=O)c3c(O[C@@H]4O[C@H](CO)[C@@H](O)[C@H](O)[C@H]4O)cccc31)c1cccc(O[C@@H]3O[C@H](CO)[C@@H](O)[C@H](O)[C@H]3O)c1C2=O [SENNOSIDE A]", "Criterion not met"],
  ["COC(=O)C1(C)CCCC2(C)c3ccc(O)c(C(C)C)c3CCC12 (stereo not shown)", "Criterion met"],
  ["CC(C)CCC[C@@H](C)[C@H]1CC[C@H]2[C@@H]3CC(=O)[C@H]4C[C@@H](O)CC[C@]4(C)[C@H]3CC[C@]12C", "Criterion met"],
  ["CC(=O)O.Cc1cc2c(C(C)C)c(O)c(O)c(C=O)c2c(O)c1-c1c(C)cc2c(C(C)C)c(O)c(O)c(C=O)c2c1O", "Criterion not met"],
  ["NCCc1c[nH]c2ccc(O)cc12 [SEROTONIN HYDROCHLORIDE]", "Criterion not met"],
  ["C[C@@H]1O[C@@H](O[C@@H]2C=C3CC[C@@H]4[C@H](CC[C@]5(C)[C@@H](c6ccc(=O)oc6)CC[C@]45O)[C@@]3(C)CC2)[C@H](O)[C@H](O)[C@H]1O", "Criterion met"]
]}
